Test: inhibition of 3D7 malaria parasite growth – strain 3D7 (AID 2306);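 note: 0% = DMSO wells and 100% = chloroquine plus artemisinin control wells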
Conditions: P. falciparum 3D7 erythrocytic growth, LDH absorbance, 72 h; at 2 µM; active compounds read high
The entries below come with measured growth inhibition values attached.
Respond numerically; units are % and should not be typed.

- molecule: "O=C(CCNc1ccnc(NCCc2ccc(F)cc2)n1)Nc1ccccc1"
  measured: 95

Entry Cc1cc2nc(-c3ccc(C(=O)NCc4ccc(Cl)c(Cl)c4)cc3)[nH]c2cc1C has what growth inhibition?
96

Look at this molecule and give its reported growth inhibition. CCCN1CCN(CCCCNc2c3ccccc3nc3ccccc23)CC1
100

Which growth inhibition value belongs to CCOc1cc2ncnc(Nc3ccc(OCc4ccccc4Br)c(OC)c3)c2cc1OCC ?
100

# lookup: growth inhibition of NC1CCCN(Cc2ccc(-c3cccc(-c4nc5ccc(F)cc5[nH]4)c3)cc2)C1 (centres undefined)
100

Quick one: growth inhibition for COc1ccc2cc(-c3nc(-c4c(Cl)cccc4Cl)[nH]c3-c3ccnc(NCCCN4CCN(C)CC4)c3)ccc2c1 ?
98

Fill in the blank: the reported growth inhibition of Cc1[nH]c(C)c(-c2ccc(Oc3ccc(O)cc3)cc2)c(=O)c1Cl is ____.
91

Tell me the measured growth inhibition of COc1ccc2nccc([C@@H](O)CN3CCC(NCc4cc5oc(=O)[nH]c5cc4F)CC3)c2c1 , please.
99

For CC(CN1CCN(C)CC1)C(=O)Nc1ccc(-c2cccc(-c3nc4ccc(C(F)(F)F)cc4[nH]3)c2)cc1 (centres undefined) , what is its reported growth inhibition?
99

Please report the recorded growth inhibition for CCN(CC)CCNc1ccnc2[nH]c3ccc([N+](=O)[O-])cc3c12 .
100

Record request: growth inhibition value, item CCCCC(=O)Nc1cc(=O)[nH]c2nc(-c3ccc(Cl)cc3)nn12
89

Would you kindly share the measured growth inhibition for CC(C)n1ncc2c(C(=O)N3CCCC4CCCCC43)cc(C3CC3)nc21 (centres undefined) ?
99

* * *

Assay: HepG2 cytotoxicity, primary screen, cytotoxicity control for P. falciparum antimalarial project, cell-based, ATP luminescence (AID 2303);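 note: 0% = DMSO wells and 100% = digitonin-killed cells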
Conditions: HepG2 viability, 24-48 h, at 10 µM, active compounds read high
measurement_type: inhibition (%)
Reply with just the number (in %).

- molecule: "O=C(c1cccc(Cl)c1)N1CCN(c2ccc([N+](=O)[O-])c(NC3CC3)c2)CC1"
  inhibition (%): 11
- molecule: "COc1ccc(Cl)cc1N1CCN(CCCNC(=O)c2ccc(-c3nc4cc(Cl)c(C)cc4[nH]3)c(F)c2)CC1"
  inhibition (%): -1
- molecule: "COc1cc(NCC2(CNCc3cn(Cc4ccccc4)c4ccccc34)CCCCC2)nc2ccccc12"
  inhibition (%): 65

Fill in the blank: the reported inhibition of CSc1cccc(Nc2nc3ccc(S(=O)(=O)NCC(C)C)cc3n2C(C)C(C)C)c1 (stereo not drawn) is ____.
3

Which inhibition value belongs to NC(=O)c1ccccc1OCC(=O)Nc1ccc(-c2cccc(-c3nc4ccc(C(F)(F)F)cc4[nH]3)c2)cc1 ?
51

Field request: inhibition | item: O=C(Nc1cc(C(F)(F)F)cc(C(F)(F)F)c1)c1cc(C(F)(F)F)cc(C(F)(F)F)c1
21

What inhibition value was documented for this molecule, CCN(CCNC(=O)Nc1cc(C(F)(F)F)cc(C(F)(F)F)c1)c1cccc(C)c1 ?
-3

Reported inhibition for COc1cc2nc(N3CCC(CNC(=O)c4ccc(-c5ccc(C#N)cc5)cc4)CC3)nc(N)c2cc1OC : what is it?
21

Reported inhibition for COc1ccc(C(=O)CCC(=O)N(Cc2ccc(-c3ccc(CNCCc4ccc(S(C)(=O)=O)cc4)cn3)cc2)C2C[C@@H]3CC[C@H]2C3)cc1F (stereo partly drawn) : what is it?
5

Which value of inhibition has been reported for O=C(/C=C/c1ccc(Cl)c(Cl)c1)NCCCCCN1CCN(C(=O)Nc2ccc(C(F)(F)F)cc2)CC1 in the records?
26
